System: Leishmania donovani
run description: Antileishmanial activity against Leishmania donovani MHOM/IN/80/DD8 promastigote forms harboring luciferase gene at 25 uM after 72 hrs by Steady-Glo reagent based luminescence assay relative to control
Format: functional
settings: MHOM/IN/80/DD8, 72 h, read-out: GI
inhibition of growth at 25 µM listing for selected compounds.
quantity measured: inhibition of growth at 25 µM (%)

                                   compound  unit_abbrev  reported_result
0  COc1ccc(OC)c(-c2c3c(nc4c2c(-c2c[nH]c5ccccc25)nn4-c2ccc(Cl)cc2)CCC3=O)c1            %             61.2
1  O=C1C2=C(Nc3c(c(-c4c[nH]c5ccccc45)nn3-c3ccc(F)cc3)C2c2ccc(Cl)cc2)c2ccccc21 (configuration not stated)            %             54.2
2  COc1ccc(OC)c(-c2c3c(nc4c2c(-c2c[nH]c5ccccc25)nn4-c2ccc(F)cc2)-c2ccccc2C3=O)c1            %             49.8
3  COc1ccc(-c2c3c(nc4c2c(-c2c[nH]c5ccccc25)nn4-c2ccc(Cl)cc2)CC(C)(C)CC3=O)c(OC)c1OC            %             40.2
4  COc1ccc(OC)c(C2C3=C(CCC3=O)Nc3c2c(-c2c[nH]c4ccccc24)nn3-c2ccc(Cl)cc2)c1 (configuration not stated)            %             85.5
5  COc1cc(-c2c3c(nc4c2c(-c2c[nH]c5ccccc25)nn4-c2ccc(Cl)cc2)CC(C)(C)CC3=O)cc(OC)c1OC            %             59.1
6  COc1ccc(-c2c3c(nc4c2c(-c2c[nH]c5ccccc25)nn4-c2ccc(Cl)c(Cl)c2)CCC3=O)cc1OC            %             52.4

---

run description: Metabolic stability in mouse liver S9 fractions assessed as rate constant for metabolism at 1 mM after 60 mins in presence of NADPH by HPLC method
Format: ADME, tissue-based
quantity measured: k el at 1 h, 1000 µM (s⁻¹)

In [3]: df
Out[3]:
                                   compound     quantity_measured  reported_result
0  COc1ccc(C2C3=C(CCC3=O)Nc3c2c(-c2c[nH]c4ccccc24)nn3-c2ccc(Cl)c(Cl)c2)cc1OC (configuration not stated)  k el at 1 h, 1000 µM         0.000217
1  COc1ccc(OC)c(C2C3=C(CC(C)(C)CC3=O)Nc3c2c(-c2c[nH]c4ccccc24)nn3-c2ccc(Cl)c(Cl)c2)c1 (configuration not stated)  k el at 1 h, 1000 µM         0.000283

---

run description: Apparent clearance in Swiss mouse at 50 mg/kg, po by LC-MS/MS analysis
Type: ADME, organism-based
settings: in vivo
quantity measured: CL/F (mL/min/kg)

In [3]: df
Out[3]:
                                   molecule  quantity_measured  reported_result
0  COc1ccc(C2C3=C(CCC3=O)Nc3c2c(-c2c[nH]c4ccccc24)nn3-c2ccc(Cl)c(Cl)c2)cc1OC (stereo unspecified)               CL/F             47.3

---

Recorded viability at 72 h, one value per entry.
run description: Cytotoxicity against African green monkey Vero cells assessed as cell viability up to 200 uM after 72 hrs by MTT assay relative to control
Format: cell-based
settings: chlorocebus sabaeus, read-out: Activity
quantity measured: viability at 72 h

                                   molecule  quantity_measured  reported_result
0  COc1ccc(OC)c(C2C3=C(CC(C)(C)CC3=O)Nc3c2c(-c2c[nH]c4ccccc24)nn3-c2ccc(Cl)c(Cl)c2)c1 (configuration not stated)  viability at 72 h            > 95%
1  COc1ccc(C2C3=C(CCC3=O)Nc3c2c(-c2c[nH]c4ccccc24)nn3-c2ccc(Cl)c(Cl)c2)cc1OC (configuration not stated)  viability at 72 h            > 95%

---

run description: Half life in Swiss mouse at 50 mg/kg, po by LC-MS/MS analysis
Assay type: ADME, organism-based
settings: in vivo
quantity measured: half-life (h)

                                   compound  quantity_measured  reported_result
0  COc1ccc(C2C3=C(CCC3=O)Nc3c2c(-c2c[nH]c4ccccc24)nn3-c2ccc(Cl)c(Cl)c2)cc1OC (stereo unspecified)          half-life             4.81

---

run description: Cytotoxicity against African green monkey Vero cells assessed as reduction in cell viability after 72 hrs by MTT assay
Assay type: cell-based
settings: chlorocebus sabaeus
quantity measured: CC50 at 72 h (µM)

>>> df
                                   molecule  reported_result
0  CCCCCCCCCCCCCCCCOP(=O)([O-])OCC[N+](C)(C)C             50.8
1  COc1ccc(C2C3=C(CCC3=O)Nc3c2c(-c2c[nH]c4ccccc24)nn3-c2ccc(Cl)c(Cl)c2)cc1OC (stereo not drawn)              438
2  COc1ccc(OC)c(C2C3=C(CC(C)(C)CC3=O)Nc3c2c(-c2c[nH]c4ccccc24)nn3-c2ccc(Cl)c(Cl)c2)c1 (stereo not drawn)              498

---

run description: Apparent volume of distribution in Swiss mouse at 50 mg/kg, po by LC-MS/MS analysis
Assay type: ADME, organism-based
settings: in vivo
quantity measured: Vd/F (L/kg)

>>> print(df.to_string())
                                   molecule  quantity_measured  reported_result
0  COc1ccc(C2C3=C(CCC3=O)Nc3c2c(-c2c[nH]c4ccccc24)nn3-c2ccc(Cl)c(Cl)c2)cc1OC (stereo unspecified)               Vd/F             19.6

---

Test system: Leishmania donovani
run description: Antileishmanial activity against Leishmania donovani MHOM/IN/80/DD8 promastigote forms harboring luciferase gene at 25 uM after 72 hrs by Steady-Glo reagent based luminescence assay relative to control
Format: functional
settings: MHOM/IN/80/DD8, 72 h, read-out: GI
inhibition of growth at 25 µM of 60% or higher: true (1). Under 60%: false (0).

>>> print(df.to_string())
                                    compound  classification
 0  CCCCCCCCCCCCCCCCOP(=O)([O-])OCC[N+](C)(C)C [MILTEFOSINE]        true (1)
 1  COc1cc(-c2c3c(nc4c2c(-c2c[nH]c5ccccc25)nn4-c2ccc(Cl)cc2)CCC3=O)cc(OC)c1OC        true (1)
 2  COc1ccc(-c2c3c(nc4c2c(-c2c[nH]c5ccccc25)nn4-c2ccc(Cl)cc2)CC(C)(C)CC3=O)cc1       false (0)
 3  CC1(C)CC(=O)C2=C(C1)Nc1c(c(-c3c[nH]c4ccccc34)nn1-c1ccc(Cl)cc1)C2c1ccc(Cl)cc1 (centres undefined)        true (1)
 4  CC1(C)CC(=O)c2c(nc3c(c(-c4c[nH]c5ccccc45)nn3-c3ccc(F)cc3)c2-c2ccc(Cl)cc2Cl)C1       false (0)
 5  COc1cc(-c2c3c(nc4c2c(-c2c[nH]c5ccccc25)nn4-c2ccc(Cl)cc2)-c2ccccc2C3=O)cc(OC)c1OC       false (0)
 6  CC1(C)CC(=O)c2c(nc3c(c(-c4c[nH]c5ccccc45)nn3-c3ccc(Cl)cc3)c2-c2ccc(Cl)cc2)C1       false (0)
 7  O=C1C2=C(Nc3c(c(-c4c[nH]c5ccccc45)nn3-c3ccc(Cl)cc3)C2c2ccc(Cl)cc2)c2ccccc21 (centres undefined)       false (0)
 8  COc1ccc(OC)c(-c2c3c(nc4c2c(-c2c[nH]c5ccccc25)nn4-c2ccc(F)cc2)CC(C)(C)CC3=O)c1        true (1)
 9  COc1ccc(C2C3=C(Nc4c2c(-c2c[nH]c5ccccc25)nn4-c2ccc(Cl)cc2)c2ccccc2C3=O)c(OC)c1OC (centres undefined)        true (1)
10  COc1ccc(OC)c(C2C3=C(CC(C)(C)CC3=O)Nc3c2c(-c2c[nH]c4ccccc24)nn3-c2ccc(Cl)c(Cl)c2)c1 (centres undefined)        true (1)
11  COc1ccc(OC)c(-c2c3c(nc4c2c(-c2c[nH]c5ccccc25)nn4-c2ccc(Cl)cc2)-c2ccccc2C3=O)c1       false (0)
12  CC1(C)CC(=O)C2=C(C1)Nc1c(c(-c3c[nH]c4ccccc34)nn1-c1ccc(Cl)cc1)C2c1cccs1 (centres undefined)        true (1)
